Value source: ChEMBL document CHEMBL4350972

# Method Summary: Cytotoxicity against human RD cells incubated for 4 days by CellTiter-Glo luminescence assay
# Format: cell-based
Observable: CC50 at 96 h (µM)
Report as a plain number; the unit µM is understood.

-- ask Look at this compound and give its reported CC50 at 96 h. O=C1Cc2cc(-c3ccc4ncc5ccc(=O)n(-c6cccc(C(F)(F)F)c6)c5c4c3)ccc2N1
-- reply 10.3

-- ask // same read-out, input: CC(=O)/C=C/c1cnc2ccc(-c3cnc4ccccc4c3)cc2c1Nc1cccc(C(F)(F)F)c1
-- reply 0.68

-- ask // same read-out, input: CCCC(=O)Nc1ccc(-c2ccc3ncc4ccc(=O)n(-c5cccc(C(F)(F)F)c5)c4c3c2)cn1
-- reply 0.75

-- ask // same read-out, input: COc1cncc(-c2ccc3ncc4oc(=O)n(-c5cccc(C(F)(F)F)c5)c4c3c2)c1
-- reply 68.5

-- ask // same read-out, input: COc1ccc(-c2ccc3ncc4ccc(=O)n(-c5cccc(C(F)(F)F)c5)c4c3c2)cn1
-- reply 0.13

-- ask // same read-out, input: O=c1oc2cnc3ccc(-c4cnc5ccccc5c4)cc3c2n1-c1cccc(C(F)(F)F)c1
-- reply 68.9
